Experiment: folding enthalpy; higher = less favourable; fluorescence melt of hairpins on a sequencing array, two-state fit
Test parameters: sodium 0.088 M
Catalogue of sequences with associated folding enthalpy
Field format: number, assumed kcal/mol, no unit text.

Below: 3 sequences and their reported folding enthalpy.
Item sequence	folding enthalpy (kcal/mol)
GATCGATTGTCGATC ((((((...))))))	-35.5
GCATGCCCGAAAGGGTGC (((..(((....))))))	-14.3
CGCGGAAGCATCCGCG ((((((....))))))	-27.5

Name the recorded folding enthalpy for GCGGTTTTCCGC ((((....)))) .
-30.3

Name the recorded folding enthalpy for GCGCCTGGAAACAAGCGC ((((.((....)).)))) .
-41.6

Name the recorded folding enthalpy for GCGACTGGAAACAATCGC ((((.((....)).)))) .
-40.4

---

Experiment: melting temperature; fluorescence melt of hairpins on a sequencing array, two-state fit, raised by 9.35 °C to match UV melts
Test parameters: sodium 0.088 M
Catalogue of sequences with associated Tm
Field format: number, assumed °C, no unit text.

Item sequence	Uom	Tm
GCATTGTCGAAAGACTGC (((..(((....))))))	°C	37.2
GTTGTTGCGAAAGCAAAC (((..(((....))))))	°C	53.1

Name the recorded Tm for GCGGGTGGAAACGCCTGC ((.((.(....).)).)) .
51.7

Name the recorded Tm for GTCGTTGGAAACGATGAC (((.(.(....).).))) .
49

Name the recorded Tm for GATCGACGCTTCGATC ((((((....)))))) .
53.3

Name the recorded Tm for GGCCTTGCGAAAGCAGCC (((..(((....)))))) .
45.2

Name the recorded Tm for GAGTTGGGAAACCAGCTC (((.(((....))).))) .
48.9

Name the recorded Tm for GTGTTACGAAAGTAGCAC (((.(((....))).))) .
53.9

Name the recorded Tm for GTGGGTGGAAACACTCGC (.(.(((....))).).) .
42

Name the recorded Tm for GAGCTCCGAAAGGACTC (((.(((....)))))) .
47.4

Name the recorded Tm for GCGTGGCGAAAGCACCGC (((..((....))..))) .
62.2

---

Experiment: folding enthalpy; higher = less favourable; fluorescence melt of hairpins on a sequencing array, two-state fit
Test parameters: sodium 0.088 M
Recorded endpoint: folding enthalpy (kcal/mol)
Field format: number, assumed kcal/mol, no unit text.

Below: 5 sequences and their reported folding enthalpy.
Item sequence	Quantitative readout
GATCGCCTGGCGATC ((((((...))))))	-35.7
GCTGCCGAAAGGCCCAGC ((((((....)))..)))	-12.2
GCACAGCCGAAAGGCTGC (((..(((....))))))	-6.1
GGTCGGGGAAACCCGATC (.(((((....))))).)	-32
GTACACGGAAACACGTAC ((((..(....)..))))	-15.4

Proceed to the following item.
Name the recorded folding enthalpy for GATCGTGACACGATC ((((((...)))))) .
-40.4

---

Experiment: folding enthalpy; higher = less favourable; fluorescence melt of hairpins on a sequencing array, two-state fit
Test parameters: sodium 0.088 M
Recorded endpoint: folding enthalpy (kcal/mol)
Field format: number, assumed kcal/mol, no unit text.

Item sequence	Recorded endpoint	Quantitative readout
GCGGGGGGAAACCCCTGC ((.((((....)))).))	folding enthalpy	-31.9
GCTGCTGGAAACAGCGGC ((.((((....)))).))	folding enthalpy	-45.2
GGCCACGAAAGTGACGCC ((((((....)))..)))	folding enthalpy	-21.7

Name the recorded folding enthalpy for GATCTTCTGAAAGATC ((((((....)))))) .
-25.4

Name the recorded folding enthalpy for GATCTTATGTAAGATC ((((((....)))))) .
-36.6

Name the recorded folding enthalpy for GATCAGCCGACTGATC ((((((....)))))) .
-35.5

Name the recorded folding enthalpy for GTAGGTCGAAAGACTTAC (((.(((....))).))) .
-27.3

Name the recorded folding enthalpy for GCACACGAAAGTGGTTGC ((((((....)))..))) .
-15.5
